Listed here are molecules together with their documented IC50.
ASSAYED SYSTEM: Renin (Homo sapiens, UniProt P00797)
Sequence (P00797 whole entry): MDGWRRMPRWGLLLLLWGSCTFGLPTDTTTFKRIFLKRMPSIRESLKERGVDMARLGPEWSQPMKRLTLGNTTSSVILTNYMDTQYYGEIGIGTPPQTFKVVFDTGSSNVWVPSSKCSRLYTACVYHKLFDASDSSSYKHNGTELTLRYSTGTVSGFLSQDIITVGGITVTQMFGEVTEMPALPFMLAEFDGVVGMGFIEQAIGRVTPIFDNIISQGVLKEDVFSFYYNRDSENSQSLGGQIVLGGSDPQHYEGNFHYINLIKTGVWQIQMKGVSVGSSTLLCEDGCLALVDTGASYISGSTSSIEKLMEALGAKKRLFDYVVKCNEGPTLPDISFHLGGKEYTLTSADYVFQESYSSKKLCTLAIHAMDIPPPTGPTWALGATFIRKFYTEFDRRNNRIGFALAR
PROTOCOL SUMMARY: Compound was evaluated for the inhibitory concentration against human plasma renin at pH 7.4
Assay type: cell-free
// return numeric value only (unit: µM, not printed)

> print(dat)
                                 smiles.str  measurement.name  reported
1  CCN1C[C@@H]([C@H](O)[C@H](CC2CCCCC2)NC(=O)[C@H](Cc2cn(C)cn2)NC(=O)[C@@H](CC(=O)N2CCOCC2)Cc2ccccc2)OC1=O              IC50     0.058
2  CCN1C[C@@H]([C@H](O)[C@H](CC2CCCCC2)NC(=O)[C@H](Cc2cc[nH]n2)NC(=O)[C@@H](CC(=O)N2CCOCC2)Cc2ccccc2)OC1=O              IC50     0.021
3  CCN1C[C@@H]([C@H](O)[C@H](CC2CCCCC2)NC(=O)[C@H](Cc2cccs2)NC(=O)[C@@H](CC(=O)N2CCOCC2)Cc2ccccc2)OC1=O              IC50     0.043

Let us move to another entry and its IC50.
Which IC50 reading was recorded for the molecule CCN1C[C@@H]([C@H](O)[C@H](CC2CCCCC2)NC(=O)[C@H](Cc2cscn2)NC(=O)[C@@H](CC(=O)N2CCOCC2)Cc2ccccc2)OC1=O ?
0.0081
